Lab note: pIC50 readings collected with human full length PDE3A (Homo sapiens (Human)) for the following compounds.
Sequence (Q14432 whole entry): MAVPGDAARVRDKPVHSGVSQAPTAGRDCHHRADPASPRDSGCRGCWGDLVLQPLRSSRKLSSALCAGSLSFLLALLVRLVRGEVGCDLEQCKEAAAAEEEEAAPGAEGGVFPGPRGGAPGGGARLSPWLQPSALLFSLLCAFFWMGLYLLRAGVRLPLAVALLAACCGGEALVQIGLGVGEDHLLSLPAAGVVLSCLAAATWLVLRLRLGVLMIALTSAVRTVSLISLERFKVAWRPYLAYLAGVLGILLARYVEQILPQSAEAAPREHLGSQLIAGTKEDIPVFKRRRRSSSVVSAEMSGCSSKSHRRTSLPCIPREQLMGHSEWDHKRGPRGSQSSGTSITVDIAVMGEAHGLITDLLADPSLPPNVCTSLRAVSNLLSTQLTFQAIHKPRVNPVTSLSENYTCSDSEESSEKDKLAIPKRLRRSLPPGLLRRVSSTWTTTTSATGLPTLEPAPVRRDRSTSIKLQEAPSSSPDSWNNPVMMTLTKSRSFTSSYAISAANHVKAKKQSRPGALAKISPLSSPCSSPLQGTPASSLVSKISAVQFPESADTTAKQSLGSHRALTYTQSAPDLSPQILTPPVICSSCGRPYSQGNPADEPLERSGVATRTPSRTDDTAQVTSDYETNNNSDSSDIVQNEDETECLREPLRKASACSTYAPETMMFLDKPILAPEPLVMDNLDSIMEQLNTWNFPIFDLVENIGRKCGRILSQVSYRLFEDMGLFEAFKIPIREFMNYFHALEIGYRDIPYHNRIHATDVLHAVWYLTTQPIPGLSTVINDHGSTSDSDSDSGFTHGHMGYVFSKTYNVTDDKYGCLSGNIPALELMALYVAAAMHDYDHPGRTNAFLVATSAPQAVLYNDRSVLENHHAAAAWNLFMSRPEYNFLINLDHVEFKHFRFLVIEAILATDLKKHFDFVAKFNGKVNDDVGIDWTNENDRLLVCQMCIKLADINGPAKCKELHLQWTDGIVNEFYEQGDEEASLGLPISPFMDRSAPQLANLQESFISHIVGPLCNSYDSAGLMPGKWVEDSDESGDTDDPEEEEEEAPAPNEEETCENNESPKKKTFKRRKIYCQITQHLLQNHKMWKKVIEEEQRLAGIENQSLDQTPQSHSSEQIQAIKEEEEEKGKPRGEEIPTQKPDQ
pIC50: −log10 of the molar value.
reported property: pIC50

compound	value reported
CCOC(C)CNc1ccc(C2=NNC(=O)OC2)cc1C(F)(F)F (racemic) [Example 241]	7.18
Cc1ccc(-c2ccc(C3=NNC(=O)O[C@H]3C)cc2C(F)(F)F)c(F)c1 [Example 168]	6.77
CC1OC(=O)NN=C1c1ccc(Br)cc1 (racemic) [Intermediate 72]	6.49
O=C1NN=C(c2ccc(N3CC[C@@H](O)C3)c(C(F)(F)F)c2)CO1 [Example 257]	7.12
O=C1NN=C(c2ccc(-c3ccc(F)c(F)c3F)c(F)c2)CO1 [Example 99]	7.06
N#CCCCNc1ccc(C2=NNC(=O)OC2)cc1C(F)(F)F [Example 254]	7.35
C[C@@H](O)CNc1ccc(C2=NNC(=O)OC2)cc1C(F)(F)F [Example 216]	6.99
Nc1cccc(-c2ccc(C3=NNC(=O)OC3)cc2C(F)(F)F)c1F [Example 43]	7.02
C[C@@H]1OC(=O)NN=C1c1ccc(-c2ccccc2F)c(C(F)(F)F)c1 [Example 179]	6.85
N#Cc1cc(C2=NNC(=O)OC2)cc(Cl)c1N1CCOCC1 [Example 23]	6.42
Cc1cc(C2=NNC(=O)OC2)ccc1-c1cn[nH]c1 [Example 11]	7.08
O=C1NN=C(c2ccc(-c3cccc(O)c3)c(F)c2)CO1 [Example 104]	7.46
Cc1ccc(-c2ccc(C3=NNC(=O)O[C@H]3C)cc2C(F)(F)F)cc1 [Example 189]	6.72
COCCNc1ccc(C2=NNC(=O)OC2)cc1C(F)(F)F [Example 222]	7.12

----------
Target: human full length PDE3B (Homo sapiens (Human), UniProt Q13370)
Sequence (Q13370 whole entry): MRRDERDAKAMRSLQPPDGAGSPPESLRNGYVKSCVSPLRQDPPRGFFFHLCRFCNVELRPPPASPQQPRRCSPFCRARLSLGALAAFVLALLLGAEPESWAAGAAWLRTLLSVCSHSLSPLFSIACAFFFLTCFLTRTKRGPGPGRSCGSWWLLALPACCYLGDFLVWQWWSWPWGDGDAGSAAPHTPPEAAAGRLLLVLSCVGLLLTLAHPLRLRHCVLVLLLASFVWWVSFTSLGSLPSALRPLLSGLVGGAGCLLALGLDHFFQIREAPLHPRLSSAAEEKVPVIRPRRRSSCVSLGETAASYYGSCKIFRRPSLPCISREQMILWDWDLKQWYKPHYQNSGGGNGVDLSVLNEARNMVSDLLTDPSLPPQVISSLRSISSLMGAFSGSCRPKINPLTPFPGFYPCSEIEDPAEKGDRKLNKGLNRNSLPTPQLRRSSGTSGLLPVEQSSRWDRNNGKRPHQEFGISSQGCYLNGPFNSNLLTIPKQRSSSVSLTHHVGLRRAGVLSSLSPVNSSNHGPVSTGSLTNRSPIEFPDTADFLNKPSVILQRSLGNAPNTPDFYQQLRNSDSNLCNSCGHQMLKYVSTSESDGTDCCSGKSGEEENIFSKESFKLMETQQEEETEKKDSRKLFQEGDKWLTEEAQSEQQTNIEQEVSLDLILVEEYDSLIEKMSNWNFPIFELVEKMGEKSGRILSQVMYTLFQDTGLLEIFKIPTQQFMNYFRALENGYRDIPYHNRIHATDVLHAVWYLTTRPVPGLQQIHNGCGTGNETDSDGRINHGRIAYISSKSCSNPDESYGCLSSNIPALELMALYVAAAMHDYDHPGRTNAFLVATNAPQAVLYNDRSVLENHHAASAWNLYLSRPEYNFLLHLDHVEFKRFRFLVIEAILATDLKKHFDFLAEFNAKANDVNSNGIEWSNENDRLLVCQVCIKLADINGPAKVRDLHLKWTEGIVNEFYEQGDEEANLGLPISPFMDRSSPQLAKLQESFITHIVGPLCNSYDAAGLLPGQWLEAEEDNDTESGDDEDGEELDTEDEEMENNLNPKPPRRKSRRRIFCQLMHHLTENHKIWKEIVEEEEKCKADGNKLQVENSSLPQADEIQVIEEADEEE
// reported IC50 for each item listed

molecule	limit qualifier	IC50 (nM)
NC(=O)CNc1ccc(C2=NNC(=O)OC2)cc1C(F)(F)F [Example 256]	=	480
CC(C)(O)CCNc1ccc(C2=NNC(=O)OC2)cc1C(F)(F)F [Example 319]	=	180
O=C1NN=C(c2ccc(-c3ccc(F)c(O)c3)c(C(F)(F)F)c2)CO1 [Example 37]	=	130
O=C1NN=C(c2ccc(Br)c(C(F)F)c2)CO1 [Intermediate 77]	=	330
Cc1cc(C2=NNC(=O)OC2)ccc1-c1cncnc1 [Example 14]	=	71
O=C1NN=C(c2ccc(N3CC4CC4C3)c(C(F)(F)F)c2)CO1 (stereo not shown) [Example 252]	=	86
CN(C)CCNc1ccc(C2=NNC(=O)OC2)cc1C(F)(F)F [Example 323]	>	910

----------
Experiment: Assay 6 in vitro metabolic stability in cryopreserved human hepatocytes (CL, Fmax)
Type: in vitro ADME
Details: maximal oral bioavailability calculated from half-life in cryopreserved human hepatocytes, 1 μM test compound

compound	Fmax [%]
O=C1NN=C(c2ccc(N3CCC(F)(F)CC3)c(F)c2)CO1	82
CCOCCNc1ccc(C2=NNC(=O)OC2)cc1C(F)(F)F	35
C[C@@H]1OC(=O)NN=C1c1ccc(-c2ccc(F)cc2)c(C(F)(F)F)c1	26
NC(=O)CNc1ccc(C2=NNC(=O)OC2)cc1C(F)(F)F	95
C[C@@H]1OC(=O)NN=C1c1ccc(-c2ccnc(N)c2)c(C(F)(F)F)c1	33
CCC(CNc1ccc(C2=NNC(=O)OC2)cc1C(F)(F)F)OC (centres unmarked)	35
CC(C)c1ccc(C2=NNC(=O)OC2)cc1C(F)(F)F	100
O=C1NN=C(c2ccc(-c3cnn(C(F)F)c3)c(C(F)(F)F)c2)CO1	60
O=C1NN=C(c2ccc(N3CCOCC3)c(F)c2)CO1	100
Cc1cc(F)ccc1-c1ccc(C2=NNC(=O)OC2)cc1F	53
CC1(O)CN(c2ccc(C3=NNC(=O)OC3)cc2C(F)(F)F)C1	54
